The values you see were collected from paper PMC9503946.

experiment: in vitro; conditions: human
Endpoint: pIC50
Note: pIC50 values are expressed as the negative base-10 logarithm of concentration in M.

Field pIC50 (entry Cc1ccc2ccccc2c1COc1ccc2c(C)c(CC(=O)N3CCC4(O)CCCCC4C3)c(=O)oc2c1C (stereo not shown) [Compound 1] ) reads 4.29

###

biological target: recombinant SARS-CoV-1 nucleocapsid protein (Severe acute respiratory syndrome coronavirus, UniProt P59595); experiment: biochemical
Sequence (P59595 whole entry, looked up): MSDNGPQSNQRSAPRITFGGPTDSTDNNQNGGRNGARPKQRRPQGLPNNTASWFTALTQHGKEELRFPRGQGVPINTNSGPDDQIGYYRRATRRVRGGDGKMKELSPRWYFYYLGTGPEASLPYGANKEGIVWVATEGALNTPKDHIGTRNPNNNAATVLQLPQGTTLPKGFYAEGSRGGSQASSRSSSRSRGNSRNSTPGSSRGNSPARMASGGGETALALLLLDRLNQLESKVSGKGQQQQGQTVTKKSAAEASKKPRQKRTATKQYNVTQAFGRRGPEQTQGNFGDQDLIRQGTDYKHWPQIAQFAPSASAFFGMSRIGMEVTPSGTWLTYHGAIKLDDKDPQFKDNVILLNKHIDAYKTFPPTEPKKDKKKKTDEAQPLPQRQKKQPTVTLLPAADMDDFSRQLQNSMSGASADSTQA
Endpoint: Kd (µM)
Just the number please, in µM, no unit attached.

The recorded Kd for entry Cc1ccc2ccccc2c1COc1ccc2c(C)c(CC(=O)N3CCC4(O)CCCCC4C3)c(=O)oc2c1C (stereo not shown) equals 14.6
